Test system: HCT-116
Experiment: Cell cycle arrest in human HCT116 cells assessed as accumulation at S phase at 30 uM after 24 hrs by flow cytometry
Format: functional
readout-type: Activity (%)
Expressed in %, but write only the number.

Request: Under HCT-116: report Activity of `COc1ccc(CNc2nc(NCc3ccc(OC)cc3)n3ncc(Br)c3n2)cc1` .
Response: 0.5

Request: Under HCT-116: report Activity of `COc1ccc(CNc2nc(NCc3ccc(OC)cc3)n3ncc(C(C)C)c3n2)cc1` .
Response: 2.8

Request: Under HCT-116: report Activity of `COc1ccc(CNc2nc(NCc3ccc(OC)cc3)c3ncn(C(C)C)c3n2)cc1` .
Response: 9.5

Request: Under HCT-116: report Activity of `COc1ccc(CNc2nc(NCc3ccc(OC)cc3)n3nccc3n2)cc1` .
Response: 29
